assay_overview: clinical
condition_details: human, in vivo, 3 mg, Mean plasma concentration of nalmefene, 3 mg IN; Hour 48.0

[
  {
    "compound": "C=C1CC[C@@]2(O)[C@H]3Cc4ccc(O)c5c4[C@@]2(CCN3CC2CC2)[C@H]1O5 [Nalmefene]",
    "concentration at 48 h / ng/mL": 0
  }
]

====

assay_overview: clinical
condition_details: human, in vivo, 1.5 mg, Mean plasma concentration of nalmefene, 1.5 mg IN; Hour 60.0

[
  {
    "compound_structure": "C=C1CC[C@@]2(O)[C@H]3Cc4ccc(O)c5c4[C@@]2(CCN3CC2CC2)[C@H]1O5",
    "measurement_units": "ng/mL",
    "concentration at 60 h": 0
  }
]
